- testTarget: UniProt:P9WQ59
- Sequence (P9WQ59 whole entry): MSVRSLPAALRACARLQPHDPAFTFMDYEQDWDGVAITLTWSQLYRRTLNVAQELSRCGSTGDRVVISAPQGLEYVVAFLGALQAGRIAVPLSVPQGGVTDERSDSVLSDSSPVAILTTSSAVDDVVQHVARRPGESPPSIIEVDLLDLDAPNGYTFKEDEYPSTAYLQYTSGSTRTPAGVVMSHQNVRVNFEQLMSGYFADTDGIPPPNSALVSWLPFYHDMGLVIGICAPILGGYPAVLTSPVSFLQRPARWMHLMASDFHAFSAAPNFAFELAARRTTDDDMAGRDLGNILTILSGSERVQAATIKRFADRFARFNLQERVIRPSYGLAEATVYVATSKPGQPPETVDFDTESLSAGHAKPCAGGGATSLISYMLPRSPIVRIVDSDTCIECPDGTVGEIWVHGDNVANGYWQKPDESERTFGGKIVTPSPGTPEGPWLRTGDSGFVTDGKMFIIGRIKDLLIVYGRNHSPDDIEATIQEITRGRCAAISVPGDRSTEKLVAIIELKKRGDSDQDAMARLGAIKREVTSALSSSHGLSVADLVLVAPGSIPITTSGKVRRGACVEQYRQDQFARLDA
- experimentNotes: Fluorescence polarization aasay to screen for inhibitors that compete for the binding of FadD28 to a bisubstrate Measured in Biochemical System Using Plate Reader - 2147-01_Inhibitor_Dose_CherryPick_Activity.
- Assay type: functional, Mycobacterium tuberculosis H37Rv
The source made the active and inactive calls. No rule for the calls is given here.
The reply should be one of these categories: active, inactive

What call does the record list for "Cc1cc(/C=C2\C(=O)NC(=O)N(Cc3ccccc3)C2=O)c(C)n1-c1ccc(Cl)c(C(=O)O)c1" ?
active

Name the outcome recorded for "O=C1NN(c2ccccc2)C(=O)/C1=C\c1ccc(-c2cc([N+](=O)[O-])ccc2O)o1" in the assay.
active

Assay outcome for "C=CCOc1c(Br)cc(/C=N/Nc2ccc(C(=O)O)cc2)cc1OCC" : what was it?
active

Dear colleague, could you share the recorded outcome for CC1CCCN(S(=O)(=O)c2ccc(NC(=O)Cn3nnc(-c4ccccc4F)n3)cc2)C1 (centres undefined) when you have a moment?
inactive

Source of measurements: ChEMBL document CHEMBL1201862
